- measurement_target: Non-receptor tyrosine-protein kinase TYK2 (Homo sapiens)
- Sequence (P29597 whole entry): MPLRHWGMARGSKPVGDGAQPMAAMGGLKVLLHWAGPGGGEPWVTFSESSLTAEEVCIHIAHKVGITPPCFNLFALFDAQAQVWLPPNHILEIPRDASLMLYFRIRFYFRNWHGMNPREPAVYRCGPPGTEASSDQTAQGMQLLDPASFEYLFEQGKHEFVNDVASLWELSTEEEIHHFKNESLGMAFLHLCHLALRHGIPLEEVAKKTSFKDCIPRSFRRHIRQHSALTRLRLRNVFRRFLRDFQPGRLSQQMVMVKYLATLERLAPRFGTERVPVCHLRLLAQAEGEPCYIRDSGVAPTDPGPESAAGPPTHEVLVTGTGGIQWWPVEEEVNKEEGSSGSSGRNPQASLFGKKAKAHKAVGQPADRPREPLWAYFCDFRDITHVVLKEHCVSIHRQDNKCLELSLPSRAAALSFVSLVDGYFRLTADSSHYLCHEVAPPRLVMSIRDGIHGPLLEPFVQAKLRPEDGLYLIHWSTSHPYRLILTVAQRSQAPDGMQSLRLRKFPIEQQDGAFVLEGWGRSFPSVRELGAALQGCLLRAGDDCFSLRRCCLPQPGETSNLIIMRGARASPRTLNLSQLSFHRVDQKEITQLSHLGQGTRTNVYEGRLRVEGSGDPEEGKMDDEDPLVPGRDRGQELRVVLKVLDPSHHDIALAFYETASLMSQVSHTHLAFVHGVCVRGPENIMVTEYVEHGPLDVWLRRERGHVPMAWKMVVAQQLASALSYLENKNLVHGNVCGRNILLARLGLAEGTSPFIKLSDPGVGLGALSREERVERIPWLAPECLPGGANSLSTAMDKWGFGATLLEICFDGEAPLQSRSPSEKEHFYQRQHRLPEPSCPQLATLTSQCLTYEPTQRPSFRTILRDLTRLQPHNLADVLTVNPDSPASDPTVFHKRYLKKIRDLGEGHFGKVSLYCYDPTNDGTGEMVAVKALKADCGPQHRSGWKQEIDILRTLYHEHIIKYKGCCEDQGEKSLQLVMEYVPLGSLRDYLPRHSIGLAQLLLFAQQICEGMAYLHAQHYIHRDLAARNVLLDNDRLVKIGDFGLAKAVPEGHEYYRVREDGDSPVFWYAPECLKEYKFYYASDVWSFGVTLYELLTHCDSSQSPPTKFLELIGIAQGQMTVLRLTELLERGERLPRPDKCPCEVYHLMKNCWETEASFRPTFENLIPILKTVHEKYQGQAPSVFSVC
- measurement_protocol: Inhibition of TYK2 (unknown origin) assessed as reduction in IL-23 induced STAT3 phosphorylation by cell based ELISA
So I've got a bunch of compounds here, and I need their pEC50 values.
Keep in mind that pEC50 stands for -log10 of concentration in molar terms.

Quick check: pEC50 of CNc1cc(Nc2nccc3nc(-c4c(Cl)cc(C#N)cc4Cl)[nH]c23)ncn1 ? 7.14

Quick check: pEC50 of COc1cc(Nc2nccc3nc(-c4c(Cl)cccc4Cl)[nH]c23)ncn1 ? 5.44

Quick check: pEC50 of OC1CCN(c2cc(Nc3nccc4nc(-c5c(Cl)cccc5Cl)[nH]c34)ncn2)CC1 ? 6.44

Quick check: pEC50 of Clc1cccc(Cl)c1-c1nc2ccnc(Nc3cc(N4CCCC4)ncn3)c2[nH]1 ? 6.28

Quick check: pEC50 of Cc1cc(Nc2nccc3nc(-c4c(Cl)cccc4Cl)[nH]c23)ncn1 ? 6.77

Quick check: pEC50 of OCCN1CCN(c2cc(Nc3nccc4nc(-c5c(Cl)cccc5Cl)[nH]c34)ncn2)CC1 ? 6.85

Quick check: pEC50 of Cc1nccc(Nc2nccc3nc(-c4c(Cl)cccc4Cl)[nH]c23)n1 ? 5.03

Quick check: pEC50 of N#Cc1cc(Cl)c(-c2nc3ccnc(Nc4cc(N)ncn4)c3[nH]2)c(Cl)c1 ? 6.35

Quick check: pEC50 of Clc1cccc(Cl)c1-c1nc2ccnc(Nc3cc(N4CCOCC4)ncn3)c2[nH]1 ? 6.70

Quick check: pEC50 of N#Cc1cc(F)c(C(=O)Nc2ccnc(NC(=O)[C@H]3C[C@H]3F)c2)c(Cl)c1 ? 5.92

Quick check: pEC50 of N#Cc1ccnc(Nc2nccc3nc(-c4c(Cl)cccc4Cl)[nH]c23)c1 ? 7.46

Quick check: pEC50 of Cc1cc(Nc2nccc3nc(-c4c(Cl)cc(C#N)cc4Cl)[nH]c23)ncn1 ? 7.18

Quick check: pEC50 of CNc1cc(Nc2nccc3nc(-c4c(Cl)cccc4Cl)[nH]c23)ncn1 ? 7.36

Quick check: pEC50 of CN(C)c1cc(Nc2nccc3nc(-c4c(Cl)cccc4Cl)[nH]c23)ncn1 ? 6.85

Quick check: pEC50 of Clc1cccc(Cl)c1-c1nc2ccnc(Nc3cc(N4CCN(C5COC5)CC4)ncn3)c2[nH]1 ? 7.23
